# credit: patent US20250195521A1

Would you mind telling me the reported pIC50 of each entry?
system: NCI-H358 cells (K-Ras G12C); assay: CellTiter-Glo cell viability, NCI-H358; assay type: cell-based, human; details: Homo sapiens, NCI-H358, 120 h, K-Ras G12C, 5-day treatment; read-out: H358 Cell Viability IC50
pIC50: −log10 of the molar value.

Ask | Give the reported pIC50 for this molecule. CCn1c(-c2cccnc2[C@H](C)OC)c2c3cc(ccc31)-c1cc(O)cc(c1)C[C@H](NC(=O)[C@H](C(C)C)N(C)C(=O)C1(C(F)F)CCCO1)C(=O)N1CCC[C@H](N1)C(=O)OCC(C)(C)C2 (stereo partly shown)
Reply | 6.00 to 7.00

Ask | Please indicate pIC50 recorded for CCn1c(-c2cccnc2[C@H](C)OC)c2c3cc(ccc31)-c1csc(n1)C[C@H](NC(=O)[C@H](C(C)C)N(C)C(=O)[C@H]1CCN(C(C)=O)C1)C(=O)N1CCC[C@H](N1)C(=O)OCC(C)(C)C2
Reply | 5.00 to 6.00

Ask | Complete the entry with pIC50 for CCn1c(-c2cccnc2[C@H](C)OC)c2c3cc(ccc31)-c1csc(n1)C[C@H](NC(=O)[C@H](C(C)C)N(C)C(=O)N1CCN(C)[C@@H](c3ccccc3)C1)C(=O)N1CCC[C@H](N1)C(=O)OCC(C)(C)C2
Reply | 6.00 to 7.00

Ask | Name the recorded pIC50 of the item CCn1c(-c2cccnc2[C@H](C)OC)c2c3cc(ccc31)-c1csc(n1)C[C@H](NC(=O)[C@H](C(C)C)N(C)C(=O)N(C)[C@H]1CCN(C)C1)C(=O)N1CCC[C@H](N1)C(=O)OCC(C)(C)C2 in your answer.
Reply | 7.00 to 8.00

----------
biological target: NRAS Q61R binding to BRAF RBD (Homo sapiens (Human), UniProt P01111+P62937, Q61R); assay: Ras-Raf disruption/FRET/MOA assay, NRAS Q61R
Sequence (P01111 whole entry Q61R): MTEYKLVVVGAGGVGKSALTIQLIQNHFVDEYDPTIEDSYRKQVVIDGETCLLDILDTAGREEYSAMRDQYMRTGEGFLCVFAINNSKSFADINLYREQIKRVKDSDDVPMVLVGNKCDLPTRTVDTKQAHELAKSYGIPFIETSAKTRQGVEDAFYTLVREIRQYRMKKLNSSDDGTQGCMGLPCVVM
Sequence (P62937 whole entry): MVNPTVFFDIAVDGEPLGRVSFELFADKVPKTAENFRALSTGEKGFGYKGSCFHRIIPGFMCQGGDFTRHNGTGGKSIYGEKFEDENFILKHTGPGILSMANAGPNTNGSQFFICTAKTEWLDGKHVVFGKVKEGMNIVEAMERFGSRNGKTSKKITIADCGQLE
pIC50: −log10 of the molar value.
Give measured pIC50 for each item. Keep answers brief.

Ask | Please look at this compound and report its pIC50: CCn1c(-c2cccnc2[C@H](C)OC)c2c3cc(ccc31)-c1cnc(o1)C[C@H](NC(=O)[C@@H](COC1CN(C(=O)C#CC(C)(C)N(C)C)C1)C(C)C)C(=O)N1CCC[C@H](N1)C(=O)OCCC2 (atropisomer, axis not shown) [Compound A649]
Reply | < 5.00

Ask | Return value of pIC50 for input CC[C@@H](COC1CN(C(=O)C#CC(C)(C)N(C)C)C1)C(=O)N[C@H]1Cc2nc(cs2)-c2ccc3c(c2)c(c(-c2cccnc2[C@H](C)OC)n3CC)CC(C)(C)COC(=O)[C@@H]2CCCN(N2)C1=O (atropisomer, axis not shown) [Compound A705] , no commentary.
Reply | < 5.00

Ask | Give reported pIC50 value for CC[C@H](COC1CN(C(=O)C#CC(C)(C)N(C)C)C1)C(=O)N[C@H]1Cc2nc(cs2)-c2ccc3c(c2)c(c(-c2cccnc2[C@H](C)OC)n3CC)CC(C)(C)COC(=O)[C@@H]2CCCN(N2)C1=O (atropisomer, axis not shown) [Compound A660]
Reply | 5.00 to 6.00

Ask | Retrieve pIC50 measured for C=CC(=O)N1CC[C@H](C(=O)N(C)[C@H](C(=O)N[C@H]2CC3CN(CCO3)c3ccc4c(c3)c(c(-c3cccnc3[C@H](C)OC)n4CC)CC(C)(C)COC(=O)[C@@H]3CCCN(N3)C2=O)C(C)C)C1 [Compound A378] and print it.
Reply | < 5.00

----------
biological target: K-Ras G12C(GMP-PNP) binding to BRAF RBD (Homo sapiens (Human), UniProt P01116+P62937, G12C); test: Disruption of BRAF RBD interaction with K-Ras (FRET / MOA assay), K-Ras G12C; format: biochemical; conditions: read-out: KRAS G12C FRET IC50
Sequence (P01116 other isoform, or with tags, fused parts or gaps G12C): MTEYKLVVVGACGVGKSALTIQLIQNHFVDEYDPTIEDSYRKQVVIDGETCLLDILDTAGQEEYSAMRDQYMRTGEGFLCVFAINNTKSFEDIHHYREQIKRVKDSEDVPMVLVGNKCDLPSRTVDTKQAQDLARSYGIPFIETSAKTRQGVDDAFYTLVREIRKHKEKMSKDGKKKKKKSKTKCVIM
Sequence (P62937 whole entry): as the sequence (P62937 whole entry) above
quantity: IC50

Ask | Given the compound CCn1c(-c2cccnc2[C@H](C)OC)c2c3cc(ccc31)-c1csc(n1)C[C@H](NC(=O)[C@H](C(C)C)N(C)C(=O)N1CCN(C(C)=O)CC1)C(=O)N1CCC[C@H](N1)C(=O)OCC(C)(C)C2 , write its reported IC50.
Reply | < 10 nM

Ask | Give recorded IC50. CCn1c(-c2cccnc2[C@H](C)OC)c2c3cc(ccc31)-c1csc(n1)C[C@H](NC(=O)[C@H](C(C)C)N(C)C(=O)N1CCCC[C@@H](N(C)C)C1)C(=O)N1CCC[C@H](N1)C(=O)OCC(C)(C)C2
Reply | 10 to 100 nM

Ask | Retrieve IC50 measured for CCn1c(-c2cccnc2[C@H](C)OC)c2c3cc(ccc31)N1CCO[C@@H](C[C@H](NC(=O)[C@H](C(C)C)N(C)C(=O)[C@@]3(F)CCN(C(=O)C#CC(C)(C)N4CCC4)C3)C(=O)N3CCC[C@H](N3)C(=O)OCC(C)(C)C2)C1 and print it.
Reply | < 10 nM

Ask | Note down IC50 recorded for CCn1c(-c2cccnc2[C@H](C)OC)c2c3cc(ccc31)-c1cc(O)cc(c1)C[C@H](NC(=O)[C@H](C(C)C)N(C)C(=O)[C@H]1OCC[C@H]1N)C(=O)N1CCC[C@H](N1)C(=O)OCC(C)(C)C2
Reply | 100 to 1000 nM

----------
Biological target: KRAS G13D (Homo sapiens (Human), UniProt P01116+P62937, G13D)
Sequence (P01116 other isoform, or with tags, fused parts or gaps G13D): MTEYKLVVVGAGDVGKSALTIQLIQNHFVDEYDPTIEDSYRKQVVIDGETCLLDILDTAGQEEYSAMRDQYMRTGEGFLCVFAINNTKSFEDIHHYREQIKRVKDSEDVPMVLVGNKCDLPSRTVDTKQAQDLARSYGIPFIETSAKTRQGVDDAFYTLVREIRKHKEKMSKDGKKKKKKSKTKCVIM
Sequence (P62937 whole entry): as the sequence (P62937 whole entry) above
Experiment: Ras-Raf disruption/FRET/MOA assay (BRAF RBD, Cyclophilin A)
Format: biochemical
Settings: read-out: KRAS G13D FRET data IC50
Experimental: Compound is present in plate wells as a 10-point 3-fold dilution series starting at a final concentration of 30 μM. After incubation at 25° C. for 3 hours, a mixture of Anti-His Eu—W1024 and anti-GST allophycocyanin is then added to assay sample wells at final concentrations of 10 nM and 50 nM, respectively, and the reaction incubated for an additional 1.5 hours. […]
Could you please report measured IC50 for the items listed next?

Ask | For CCn1c(-c2cnccc2COC)c2c3cc(ccc31)-c1cc(O)cc(c1)C[C@H](NC(=O)[C@H](C(C)C)N(C)C(=O)[C@H]1CCCN1C)C(=O)N1CCC[C@H](N1)C(=O)OCC(C)(C)C2 [Compound A83] , write its IC50.
Reply | 100 to 1000 nM

Ask | Annotate the compound CCn1c(-c2cccnc2[C@H](C)OC)c2c3cc(ccc31)-c1cc(O)cc(c1)C[C@H](NC(=O)[C@@H]1[C@H]3C[C@H]3CN1C(C)=O)C(=O)N1CCC[C@H](N1)C(=O)OCC(C)(C)C2 [Compound A207] with its measured IC50.
Reply | 1000 to 10000 nM

Ask | Identify the reported IC50 for the following entry. CCn1c(-c2cccnc2[C@H](C)OC)c2c3cc(ccc31)-c1cc(c3cn[nH]c3c1)C[C@H](NC(=O)[C@H](C(C)C)N(C)C(C)=O)C(=O)N1CCC[C@H](N1)C(=O)OCC(C)(C)C2 [Compound A388]
Reply | 1000 to 10000 nM

Ask | Identify the reported IC50 for the following entry. CCn1c(-c2cccnc2[C@H](C)OC)c2c3cc(ccc31)-c1csc(n1)C[C@H](NC(=O)[C@H](C(C)C)N(C)C(=O)N1C3COCC1C3)C(=O)N1CCC[C@H](N1)C(=O)OCC(C)(C)C2 [Compound A540]
Reply | 100 to 1000 nM

Ask | Specify reported IC50 for the compound shown: CCn1c(-c2cccnc2[C@H](C)OC)c2c3cc(ccc31)-c1cc(O)cc(c1)C[C@H](NC(=O)[C@H](C(C)C)N(C)C(=O)[C@@H]1[C@@H]3CNC[C@@H]31)C(=O)N1CCC[C@H](N1)C(=O)OCC(C)(C)C2 [Compound A164]
Reply | 10 to 100 nM

Ask | Give a short answer stating reported IC50 for CCn1c(-c2cccnc2[C@H](C)OC)c2c3cc(ccc31)-c1csc(n1)C[C@H](NC(=O)[C@H](C(C)C)N(C)S(=O)(=O)N1CC(OC)C1)C(=O)N1CCC[C@H](N1)C(=O)OCC(C)(C)C2 [Compound A322] .
Reply | 1000 to 10000 nM

Ask | Quick one: give measured IC50 for CCn1c(-c2cccnc2[C@H](C)OC)c2c3cc(ccc31)-c1csc(n1)C[C@H](NC(=O)[C@H](C(C)C)N(C)C(=O)N1CC(O)C1)C(=O)N1CCC[C@H](N1)C(=O)OCC(C)(C)C2 [Compound A358]
Reply | 100 to 1000 nM

Ask | Quickly give me recorded IC50 for CCn1c(-c2cccnc2[C@H](C)OC)c2c3cc(ccc31)-c1csc(n1)C[C@H](NC(=O)[C@H](C(C)C)N(C)C(=O)N1C[C@H]3COC[C@H]3C1)C(=O)N1CCC[C@H](N1)C(=O)OCC(C)(C)C2 [Compound A312]
Reply | 100 to 1000 nM

Ask | Recall and state the measured IC50 for CCn1c(-c2cc(N3CCN(C)CC3)cnc2[C@H](C)OC)c2c3cc(ccc31)-c1csc(n1)C[C@H](NC(=O)[C@H](C(C)C)N(C)C(=O)[C@@H]1CCCS1(=O)=O)C(=O)N1CCC[C@H](N1)C(=O)OCC(C)(C)C2 [Compound A440] .
Reply | 1000 to 10000 nM

Ask | Please give the documented IC50 of CCn1c(-c2cccnc2[C@H](C)OC)c2c3cc(ccc31)-c1cc(O)cc(c1)C[C@H](NC(=O)[C@H](C(C)C)N(C)C(=O)C1CCC(C(F)(F)F)O1)C(=O)N1CCC[C@H](N1)C(=O)OCC(C)(C)C2 (stereo partly drawn) [Compound A408]
Reply | 100 to 1000 nM

Ask | Supply recorded IC50 for CCn1c(-c2cccnc2[C@H](C)OC)c2c3cc(ccc31)-c1csc(n1)C[C@H](NC(=O)[C@H](C(C)C)N(C)C(=O)[C@H]1CCN(C(C)=O)C1)C(=O)N1CCC[C@H](N1)C(=O)OCC(C)(C)C2 [Compound A244] here.
Reply | > 10000 nM

Ask | Assign IC50 to the following record: CCn1c(-c2cccnc2[C@H](C)OC)c2c3cc(ccc31)-c1csc(n1)C[C@H](NC(=O)C1CC1)C(=O)N1CCC[C@H](N1)C(=O)OCC(C)(C)C2 [Compound A367]
Reply | 1000 to 10000 nM

Ask | For CCn1c(-c2cccnc2[C@H](C)OC)c2c3cc(ccc31)-c1csc(n1)C[C@H](NC(=O)[C@H](C(C)C)N(C)C(=O)N(C)N(C)C)C(=O)N1CCC[C@H](N1)C(=O)OCC(C)(C)C2 [Compound A454] , write its IC50.
Reply | 100 to 1000 nM

Ask | Return value of IC50 for input CCn1c(-c2cccnc2[C@H](C)OC)c2c3cc(ccc31)-c1csc(n1)C[C@H](NC(=O)[C@H](C(C)C)N1CCC3(CCN(C)C3)C1=O)C(=O)N1CCC[C@H](N1)C(=O)OCC(C)(C)C2 (stereo partly drawn) [Compound A213] , no commentary.
Reply | 1000 to 10000 nM

Ask | Return value of IC50 for input CCn1c(-c2cccnc2[C@H](C)OC)c2c3cc(ccc31)-c1csc(n1)C[C@H](NC(=O)[C@H](C(C)C)N(C)C(=O)N1C[C@H]3CCN(C)[C@H]3C1)C(=O)N1CCC[C@H](N1)C(=O)OCC(C)(C)C2 [Compound A568] , no commentary.
Reply | 100 to 1000 nM

Ask | Please report the measured IC50 for CCn1c(-c2cccnc2[C@H](C)OC)c2c3cc(ccc31)-c1csc(n1)C[C@H](NC(=O)[C@H](C(C)C)N1CCC3(COC3)C1)C(=O)N1CCC[C@H](N1)C(=O)OCC(C)(C)C2 [Compound A561]
Reply | 100 to 1000 nM

Ask | Supply recorded IC50 for CCn1c(-c2cccnc2[C@H](C)OC)c2c3cc(ccc31)-c1csc(n1)C[C@H](NC(=O)[C@H](C(C)C)N(C)C(=O)N1CCN(C(=O)[C@@H]3CCCN3C)CC1)C(=O)N1CCC[C@H](N1)C(=O)OCC(C)(C)C2 [Compound A596] here.
Reply | 100 to 1000 nM

Ask | Tell us which IC50 value is on record for CCn1c(-c2cccnc2[C@H](C)OC)c2c3cc(ccc31)-c1cc(cc(S(C)(=O)=O)c1)C[C@H](NC(=O)[C@H](C(C)C)N(C)C(C)=O)C(=O)N1CCC[C@H](N1)C(=O)OCC(C)(C)C2 [Compound A154]
Reply | > 10000 nM
